Reference for the values: PubChem BioAssay (Tox21)

# Assay method text: A CellTox Green Cytotoxicity Assay to monitor cytotoxicity in HepG2 cells - 8 hour (AID 1224890); further: nearly all actives have a fitted effect of over 45% in size
# Measurement context: CellTox Green fluorescence; series mostly up to 76.8 µM
Inconclusive results are not listed. Calls of active or inactive are those of the source. The call rests on the fitted dose curve; in most records, active means well fitted activation curve with a large enough effect in the repeat runs; inconclusive means weak or mixed curves; inactive means flat fitted curve, though single readings scatter.
Write down one outcome, taken from active, inactive

Compound	Label
CCCCCCCCC(C)=O	inactive
Cc1cccc(C)c1NC(=O)CN1CCN(CCCC(c2ccc(F)cc2)c2ccc(F)cc2)CC1	active
CN(C)CCOC(c1ccccc1)c1ccccc1 (tested in a mixture with another compound)	inactive
O=C(O)Cc1ccc(OCCNC[C@H](O)c2ccccc2)cc1	inactive
COc1ccc(C#N)cc1	inactive

# fetch the recorded call for CCCCCCCCCCOCC(O)CN (stereo not given) here
active

# fetch the recorded call for CC(C)c1ccccc1N here
inactive

# fetch the recorded call for Brc1ccccn1 here
inactive

# fetch the recorded call for CC(C)=CCCC(C)O (stereo not given) here
inactive

# fetch the recorded call for C[C@H]1O[C@@H](O[C@H]2[C@@H](O)C[C@H](O[C@H]3[C@@H](O)C[C@H](O[C@H]4CC[C@@]5(C)[C@H](CC[C@@H]6[C@@H]5C[C@@H](O)[C@]5(C)[C@@H](C7=CC(=O)OC7)CC[C@]65O)C4)O[C@@H]3C)O[C@@H]2C)C[C@H](O)[C@@H]1O here
inactive
